- test target: T1, full length human DLL4 (human, UniProt Q9NR61 27-685)
- T1 construct: whole, on cells; also called native DLL4 expressed in HEK293 cells
- T1 sequence (Q9NR61 27-685): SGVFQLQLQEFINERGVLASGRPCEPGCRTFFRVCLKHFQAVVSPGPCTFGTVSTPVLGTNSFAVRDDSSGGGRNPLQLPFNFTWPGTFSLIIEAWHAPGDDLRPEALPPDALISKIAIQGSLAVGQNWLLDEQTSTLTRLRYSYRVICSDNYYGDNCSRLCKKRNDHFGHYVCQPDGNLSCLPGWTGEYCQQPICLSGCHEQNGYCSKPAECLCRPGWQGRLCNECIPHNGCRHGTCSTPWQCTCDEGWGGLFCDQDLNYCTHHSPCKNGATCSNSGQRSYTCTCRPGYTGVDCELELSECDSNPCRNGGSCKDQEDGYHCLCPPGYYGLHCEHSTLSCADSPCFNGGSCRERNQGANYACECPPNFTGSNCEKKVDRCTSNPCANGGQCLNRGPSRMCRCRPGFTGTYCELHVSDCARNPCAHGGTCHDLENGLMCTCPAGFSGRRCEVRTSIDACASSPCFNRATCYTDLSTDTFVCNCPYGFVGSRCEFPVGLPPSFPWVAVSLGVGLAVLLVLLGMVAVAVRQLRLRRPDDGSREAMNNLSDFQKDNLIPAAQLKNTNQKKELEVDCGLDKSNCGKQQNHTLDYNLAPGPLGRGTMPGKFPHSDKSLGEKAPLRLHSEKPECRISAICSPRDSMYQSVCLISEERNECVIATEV
- run description: FACS competition vs Notch1/Fc, HEK293 cells with human DLL4
- Procedure: Further experiments were performed on selected antibodies using HEK293 cells that were stably transfected with either human, mouse or cynomolgus monkey DLL4 using retroviral constructs. In these experiments, anti-DLL4 antibodies (final concentration: 10-0.01 μg/ml) diluted in PBS containing 2% FCS were added to DLL4-expressing HEK 293 cells (50000 cells/well diluted in PBS containing 2% FCS) and incubated for 1 h at 4° C. […]
Measured IC50 accompanies every entry in the list below.

binder	measure unit	IC50
9G8 IgG2 VH L38W/VL C33S (antibody, V domains shown, IgG2) VH: QLQLQESGPGLVKPSETLSLSCTVSGGSISSSSSYWGWIRQPPGKGLEWIGSIYYSGSTYYSPSLKSRVSISVDTSKNQFSLKLSSVTAADTAVYFCARQGYGGHPDVFDIWGQGTMVTVSS VL: SSELTQSPSVSVSPGQTARITCSGDKLGDVYVSWYQQKTGQSPVLVIYEDTKRPSGIPERFSGSNSGNTATLTISGTQVMDEADYYCQAWDSTTAVIFGGGTKLTVL	µg/mL	0.107
2H10 IgG2 VH wt/VL C33S (antibody, V domains shown, IgG2) VH: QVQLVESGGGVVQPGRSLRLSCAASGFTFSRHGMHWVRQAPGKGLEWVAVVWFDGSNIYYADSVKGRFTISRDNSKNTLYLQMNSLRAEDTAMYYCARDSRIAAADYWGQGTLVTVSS VL: SYELTQPPSVSVSPGQTVSITCSGDKLGDKYVSWYQQKPGQSPVLVIYQESKRPSGIPERFSGSSSGNTATLTISGTQAMDEADYYCQTWDSSLVVFGGGTKLTVL	µg/mL	0.084
2H10 IgG2 VH wt/VL C33A (antibody, V domains shown, IgG2) VH: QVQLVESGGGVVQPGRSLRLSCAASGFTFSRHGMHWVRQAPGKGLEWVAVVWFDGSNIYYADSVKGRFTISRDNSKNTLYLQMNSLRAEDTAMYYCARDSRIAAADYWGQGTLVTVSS VL: SYELTQPPSVSVSPGQTVSITCSGDKLGDKYVAWYQQKPGQSPVLVIYQESKRPSGIPERFSGSSSGNTATLTISGTQAMDEADYYCQTWDSSLVVFGGGTKLTVL	µg/mL	0.174
9G8 IgG2 VH L38W/VL wt (antibody, V domains shown, IgG2) VH: QLQLQESGPGLVKPSETLSLSCTVSGGSISSSSSYWGWIRQPPGKGLEWIGSIYYSGSTYYSPSLKSRVSISVDTSKNQFSLKLSSVTAADTAVYFCARQGYGGHPDVFDIWGQGTMVTVSS VL: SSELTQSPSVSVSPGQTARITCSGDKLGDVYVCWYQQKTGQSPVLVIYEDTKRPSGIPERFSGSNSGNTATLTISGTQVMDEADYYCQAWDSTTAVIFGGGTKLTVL	µg/mL	0.133
2H10 IgG2 VH wt/VL wt (antibody, V domains shown, IgG2, transiently expressed) VH: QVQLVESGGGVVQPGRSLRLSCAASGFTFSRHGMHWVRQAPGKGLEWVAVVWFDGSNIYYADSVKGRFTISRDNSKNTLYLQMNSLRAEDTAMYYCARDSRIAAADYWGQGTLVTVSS VL: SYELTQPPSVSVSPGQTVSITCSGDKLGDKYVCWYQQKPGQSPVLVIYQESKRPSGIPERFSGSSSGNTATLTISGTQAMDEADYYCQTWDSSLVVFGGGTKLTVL	µg/mL	0.224
